Assign log10 of IC50 to each entry below.
# assayedSystem: S. aureus RNA polymerase core enzyme + σA (Staphylococcus aureus (strain NCTC 8325 / PS 47), UniProt P47768+Q2G0N5)
# measurementNotes: Fluorescence-detected RNA polymerase assay, S. aureus RNAP
# Experimental: Fluorescence-detected RNA polymerase assays with E. coli RNA polymerase were performed by a modification of the procedure of Kuhlman et al., 2004 [Kuhlman, P., Duff, H. & Galant, A. (2004) A fluorescence-based assay for multisubunit DNA-dependent RNA polymerases. Anal. Biochem. 324, 183-190]. […]
The figures below represent log10 of IC50, where IC50 is stated in µM.

[ask] I would be grateful if you could share the reported log10 of IC50 for CCCCC1=C(O)C(CCCC)(CCCC)C(=O)C(C(=O)CCc2ccccc2)=C1O [Compound 18] .
[reply] 1.90

[ask] Would you mind doing CC(C)CCC1=C(O)C(CCC(C)C)(CCC(C)C)C(=O)C(C(=O)CCc2ccccc2Cl)=C1O [Compound 1] as well?
[reply] 0.76

[ask] Subsequent entry: CC(C)CCC1=C(O)C(CCC(C)C)(CCC(C)C)C(=O)C(C(=O)CCc2ccc(Cl)cc2)=C1O [Compound 3]
[reply] 0.38

[ask] Same again, this time with Cc1ccc(CCC(=O)C2=C(O)C(CCC(C)C)=C(O)C(CCC(C)C)(CCC(C)C)C2=O)cc1 [Compound 9]
[reply] -0.08

[ask] Lookup Cc1cccc(CCC(=O)C2=C(O)C(CCC(C)C)=C(O)C(CCC(C)C)(CCC(C)C)C2=O)c1 [Compound 8]
[reply] 0.34

[ask] Same thing, different molecule: CC(C)CCC1=C(O)C(CCC(C)C)(CCC(C)C)C(=O)C(C(=O)CCc2cccc(Cl)c2)=C1O [Compound 2]
[reply] 0.77

[ask] What would you report for COc1cccc(CCC(=O)C2=C(O)C(CCC(C)C)=C(O)C(CCC(C)C)(CCC(C)C)C2=O)c1 [Compound 5] ?
[reply] 0.49

[ask] Follow-up entry: CCCCCC1=C(O)C(CCCCC)(CCCCC)C(=O)C(C(=O)CCc2ccccc2)=C1O [Compound 19]
[reply] 1.11

[ask] Same again, this time with Cc1ccccc1CCC(=O)C1=C(O)C(CCC(C)C)=C(O)C(CCC(C)C)(CCC(C)C)C1=O [Compound 7]
[reply] 0.04

[ask] Now this one: CCCCC1=C(O)C(CCCC)(CCCC)C(=O)C(C(=O)CCc2ccc(Cl)cc2)=C1O [Compound 14]
[reply] 0.49

[ask] Ok, now COc1ccccc1CCC(=O)C1=C(O)C(CCC(C)C)=C(O)C(CCC(C)C)(CCC(C)C)C1=O [Compound 4]
[reply] 0.63

[ask] Param item: CC(C)CCC1=C(O)C(CCC(C)C)(CCC(C)C)C(=O)C(C(=O)C(C)Cc2ccccc2)=C1O (centres unmarked) [Compound 20]
[reply] 1.11

[ask] Would you kindly repeat that for COc1ccc(CCC(=O)C2=C(O)C(CCC(C)C)=C(O)C(CCC(C)C)(CCC(C)C)C2=O)cc1 [Compound 6] ?
[reply] 0.53

[ask] Entry to check: CC(C)CCC1=C(O)C(CCC(C)C)(CCC(C)C)C(=O)C(C(=O)CCc2ccc(Br)cc2)=C1O [Compound 11]
[reply] 0.52

[ask] # repeat for CC(C)CCC1=C(O)C(CCC(C)C)(CCC(C)C)C(=O)C(C(=O)CCc2ccccc2)=C1O [Compound 15]
[reply] 1.04

[ask] Repeat with CCCC1=C(O)C(CCC)(CCC)C(=O)C(C(=O)CCc2ccc(Cl)cc2)=C1O [Compound 13]
[reply] 0.72

[ask] For CC(C)CCC1=C(O)C(CCC(C)C)(CCC(C)C)C(=O)C(C(=O)CCc2ccc(C(F)(F)F)cc2)=C1O [Compound 12] then?
[reply] -0.34

[ask] CC(C)CCC1=C(O)C(CCC(C)C)(CCC(C)C)C(=O)C(C(=O)CCc2ccc(F)cc2)=C1O [Compound 10] ?
[reply] 0.34

Entry source: patent US10800725B2
